Origin of values: the array DNA melting data of Ke et al. (doi:10.1101/2024.01.08.574731)

protocol-notes: folding enthalpy; higher = less favourable; fluorescence melt of hairpins on a sequencing array, two-state fit
experimental-conditions: sodium 0.088 M
Answer F if folding enthalpy is under -100 kJ/mol, and T if it is -100 kJ/mol or more.

- GTCTTTGGAAACGAAGAC (((((.(....).))))): F
- GGCGTTGGAAACGACGTC (.(((.(....).))).): F
- GTTGTTCCGAAAGGAAAC (((..(((....)))))): T
- GATCATCCGAATGATC ((((((....)))))): F
- GAACACGAAAGTGATTC ((((((....))).))): T
- GTGTGCCGAAAGGCCCAC (((.(((....))).))): F
- GTATCCGAAAGGAACTAC ((((((....)))..))): T
- GCACTAGGAAACTAGTGC (((((((....))))))): F
- GCATGCGGAAACGCATAC (.(((((....))))).): T
- TCAAGGAAACTTGA (((((....))))): T
- GAGCCCGGAAACAGGCTC (((((.(....).))))): F
- GGGTAGGGAAACCTACCC (((((((....))))))): F
- GCTATGCGAAAGCATGGC ((.((((....)))).)): F
